System: T1, chimeric Hu-Leptin/Mu-EPO receptor (human; mouse, UniProt P48357 22-839; P14753 250-507)
T1 sequence (looked up): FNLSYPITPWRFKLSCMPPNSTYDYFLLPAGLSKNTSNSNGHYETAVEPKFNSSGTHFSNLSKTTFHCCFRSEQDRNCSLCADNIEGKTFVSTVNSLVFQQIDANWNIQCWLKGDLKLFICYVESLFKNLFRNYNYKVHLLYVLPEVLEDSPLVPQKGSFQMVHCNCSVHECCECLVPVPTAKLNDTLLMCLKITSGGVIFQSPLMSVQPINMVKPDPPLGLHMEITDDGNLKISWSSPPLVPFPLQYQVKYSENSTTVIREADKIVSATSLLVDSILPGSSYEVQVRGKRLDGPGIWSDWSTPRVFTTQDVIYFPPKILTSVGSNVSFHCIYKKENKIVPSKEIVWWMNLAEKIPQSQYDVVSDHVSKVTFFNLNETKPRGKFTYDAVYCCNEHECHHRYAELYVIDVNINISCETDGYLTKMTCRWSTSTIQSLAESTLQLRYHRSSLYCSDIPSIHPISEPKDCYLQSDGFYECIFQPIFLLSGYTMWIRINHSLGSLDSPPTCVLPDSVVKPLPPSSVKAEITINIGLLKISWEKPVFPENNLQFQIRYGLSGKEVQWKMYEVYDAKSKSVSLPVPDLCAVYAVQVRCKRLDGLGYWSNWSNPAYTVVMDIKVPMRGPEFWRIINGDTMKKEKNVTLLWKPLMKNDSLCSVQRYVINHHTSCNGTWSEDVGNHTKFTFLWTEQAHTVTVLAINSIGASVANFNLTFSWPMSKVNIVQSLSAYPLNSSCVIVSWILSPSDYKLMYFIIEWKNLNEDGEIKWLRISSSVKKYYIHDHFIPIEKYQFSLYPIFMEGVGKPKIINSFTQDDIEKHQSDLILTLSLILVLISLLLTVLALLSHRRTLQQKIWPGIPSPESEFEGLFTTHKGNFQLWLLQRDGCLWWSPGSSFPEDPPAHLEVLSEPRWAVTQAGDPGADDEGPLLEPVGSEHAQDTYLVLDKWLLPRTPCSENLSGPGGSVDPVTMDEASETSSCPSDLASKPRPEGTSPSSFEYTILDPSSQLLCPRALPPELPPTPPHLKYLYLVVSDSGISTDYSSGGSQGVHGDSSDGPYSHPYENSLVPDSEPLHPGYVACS
Method notes: cell-based or functional assay
Measured endpoint: EC50 nM (Obeca STAT5 assay) (nM)
API: value field is a number in nM; no unit string.

Past entries and their recorded results:
Consider the binder shown here: Cmpd 64 (other) MLAEAKEAANAELDSYGVSDFYKRLIDKAKTVEGVEALKDAILAALPTGGGGSGGGSGGGSGGGSASPIQRVQDDTKTLIKTIITRINDISPPQGVSSRPRVAGLDFIPRVQSVRTLSGMDQILATYQQILTSLQSRNVIQISNDLENLRDLLHVLAFSKSCPVPRARGSDTIKGLGNVLRASVHSTEVVALSRLKAALQDMLRQLDRNPGC What is its recorded EC50 nM (Obeca STAT5 assay)?
0.634

What value of EC50 nM (Obeca STAT5 assay) has been reported for the following binder? Cmpd 1 (other) MGSLAEAKEAANAELDSYGVSDFYKRLIDKAKTVEGVEALKDAILAALPTGGGGASVPIQKVQDDTKTLIKTIVTRINDISHTQSVSSKQKVTGLEFIPGLHPILTLSKMDQTLAVYQQILTSMPSRNVIQISNDLENLRDLLHVLAFSKSCHLPQASGLETLESLGGVLEASGYSTEVVALSRLQGSLQDMLQQLDLSPGC
0.908

More entries:
Give the measured EC50 nM (Obeca STAT5 assay) of PEP07986-negative linker-A500 (Compound 12) (other, also called Cmpd 12; PEP07986-Negative-A500) MGSLAEAKEAANAELDSYGVSDFYKRLIDKAKTVEGVEALKDAILAALPTGGEGGEGGEGGEGGEGGEASVPIQKVQDDTKTLIKTIVTRINDISHTQSVSSKQKVTGLEFIPGLHPILTLSKMDQTLAVYQQILTSMPSRNVIQISNDLENLRDLLHVLAFSKSCHLPQASGLETLESLGGVLEASGYSTEVVALSRLQGSLQDMLQQLDLSPGC .
0.947

Origin of the recorded values: patent US20140256621A1
